# System: T47D
# test method notes: Inhibition of [3H]putrescine transport by the compound was evaluated in T-47D human breast cancer cells
# Assay type: functional, cell-based
quantity name: Ki

> print(dat)
                       smiles.structure  quantity.name  data.value
1          NCCCCN(CCCN)CCCCN(CCCN)CCCCN             Ki      720 nM
2  NCCCCN(CCCN)Cc1ccc(CN(CCCN)CCCCN)cc1             Ki      280 nM
3    NCCCN(CCCN)Cc1ccc(CN(CCCN)CCCN)cc1             Ki      160 nM
4                        NCCCNCCCCNCCCN             Ki      650 nM

###

# Test system: T47D
# test method notes: Inhibition of [3H]putrescine transport by the compound was evaluated in T-47D human breast cancer cells
# Type: functional, cell-based
quantity name: log10 Ki (log10 of the value in nM)

> print(dat)
                                   compound  data.value
1                NCCCN(CCCN)CCCCN(CCCN)CCCN        2.72
2             NCCCCN(CC#CCN(CCCN)CCCCN)CCCN        3.28
3  NCCCNCCCC(NCCCN)C(=O)NCCSSCCNC(=O)C(CCCNCCCN)NCCCN (configuration not stated)        3.49
4             NCCCN(C/C=C/CN(CCCN)CCCN)CCCN        2.43
5           NCCCCN(C/C=C/CN(CCCN)CCCCN)CCCN        2.00
6               NCCCN(CC#CCN(CCCN)CCCN)CCCN        3.41
7                       NCCCCN [PUTRESCINE]        3.87

###

# System: ZR-75-1
# test method notes: Inhibition of [3H]spermine transport by the compound was evaluated in ZR-75-1 human breast cancer cells
# Type: functional, cell-based
quantity name: Ki (nM)

> print(dat)
                                   compound  target.or.test.system  measurement.unit  data.value
1  NCCCNCCCC(NCCCN)C(=O)NCCSSCCNC(=O)C(CCCNCCCN)NCCCN (stereo unspecified)                ZR-75-1                nM        4000
2        NCCCN(CCCN)Cc1ccc(CN(CCCN)CCCN)cc1                ZR-75-1                nM         700
3                            NCCCNCCCCNCCCN                ZR-75-1                nM         200
4      NCCCCN(CCCN)Cc1ccc(CN(CCCN)CCCCN)cc1                ZR-75-1                nM         240
5        NCCCN(CCCN)C(=O)CCC(=O)N(CCCN)CCCN                ZR-75-1                nM        1700
6                NCCCN(CCCN)CCCCN(CCCN)CCCN                ZR-75-1                nM         560
